- assayExplanation: Order parameter (S) of the dye in liquid crystal material
- Type: physicochemical
- details: liquid crystal material E 43, 20° C.
assayReadout: Order Parameter (S)
// no unit string in output, number only

Fill blank: measured Order Parameter (S) of the compound CCCCCCCCc1cc(N)c2c(c1O)C(=O)c1c(O)c(CCCCCCCC)cc(N)c1C2=O [Example 4, 2,7-di-n-octyl-4,5-diaminochrysazin] is ____. 0.73

Entry CCC(CC)Cc1cc(N)c2c(c1O)C(=O)c1c(O)c(CC(CC)CC)cc(N)c1C2=O [--CH(C2 H5)2] please 0.66

Entry CCCCCCc1cc(N)c2c(c1O)C(=O)c1c(O)c(CCCCCC)cc(N)c1C2=O [Example 3, 2,7-Di-n-hexyl-4,5-diaminochrysazin] please 0.76

----------
- assayExplanation: Solubility (wt %) of the dye in liquid crystal material
- Type: physicochemical
- details: liquid crystal material E 43, 20° C.
Recorded Solubility for the following compounds
Just the number plus its unit, please.

CCCCCc1cc(N)c2c(c1O)C(=O)c1c(O)c(CCCCC)cc(N)c1C2=O	8.0 wt %
CC(CCCc1cc(N)c2c(c1O)C(=O)c1c(O)c(CCCC(C)CC(C)(C)C)cc(N)c1C2=O)CC(C)(C)C (stereo not shown) [--C2 H4 CH(CH3)CH2 C(CH3)3, reference compound]	1.6 wt %
CCCCCCCc1cc(NC)c2c(c1O)C(=O)c1c(O)c(CCCCCCC)cc(NC)c1C2=O	0.5 wt %

// switching to the query compound
Fill blank: measured Solubility of the compound CCCCCCCc1cc(N)c2c(c1O)C(=O)c1c(O)c(CCCCCCC)cc(NC)c1C2=O is ____. 0.5 wt %

----------
- assayExplanation: Order parameter (S) of the dye in liquid crystal material
- Format: physicochemical
- details: liquid crystal material E 43, 20° C.
Label 1.0 for high-side Order Parameter (S) (at or above 0.7) and 0.0 for low-side Order Parameter (S) (below it).

Previously resolved entries follow.
CCCCCc1cc(NC)c2c(c1O)C(=O)c1c(O)c(CCCCC)cc(NC)c1C2=O	0.0
CCCCCCCc1cc(NC)c2c(c1O)C(=O)c1c(O)c(CCCCCCC)cc(NC)c1C2=O	0.0
CNc1cc(CC(C)C)c(O)c2c1C(=O)c1c(N)cc(CC(C)C)c(O)c1C2=O	0.0
CCCCCc1cc(N)c2c(c1O)C(=O)c1c(O)c(CCCCC)cc(N)c1C2=O	1.0

Tell me whether Order Parameter (S) is at least 0.7 here: CCCCCCCc1cc(N)c2c(c1O)C(=O)c1c(O)c(CCCCCCC)cc(N)c1C2=O 1.0

----------
- assayExplanation: Order parameter (S) of the dye in liquid crystal material
- Type: physicochemical
- details: liquid crystal material E 43, 20° C.
Recorded Order Parameter (S) for the following molecules
// no unit string in output, number only

// below: answered molecules
CNc1cc(CC(C)C)c(O)c2c1C(=O)c1c(NC)cc(CC(C)C)c(O)c1C2=O	0.54
CCCCCCCc1cc(N)c2c(c1O)C(=O)c1c(O)c(CCCCCCC)cc(NC)c1C2=O	0.68

// switching to the query molecule
Fill blank: measured Order Parameter (S) of the molecule CC(CCCc1cc(N)c2c(c1O)C(=O)c1c(O)c(CCCC(C)CC(C)(C)C)cc(N)c1C2=O)CC(C)(C)C (stereo not drawn) [--C2 H4 CH(CH3)CH2 C(CH3)3, reference compound] is ____. 0.71
